- system: Nuclear receptor ROR-gamma (Mus musculus) (UniProt P51450)
- Sequence (P51450 whole entry, looked up): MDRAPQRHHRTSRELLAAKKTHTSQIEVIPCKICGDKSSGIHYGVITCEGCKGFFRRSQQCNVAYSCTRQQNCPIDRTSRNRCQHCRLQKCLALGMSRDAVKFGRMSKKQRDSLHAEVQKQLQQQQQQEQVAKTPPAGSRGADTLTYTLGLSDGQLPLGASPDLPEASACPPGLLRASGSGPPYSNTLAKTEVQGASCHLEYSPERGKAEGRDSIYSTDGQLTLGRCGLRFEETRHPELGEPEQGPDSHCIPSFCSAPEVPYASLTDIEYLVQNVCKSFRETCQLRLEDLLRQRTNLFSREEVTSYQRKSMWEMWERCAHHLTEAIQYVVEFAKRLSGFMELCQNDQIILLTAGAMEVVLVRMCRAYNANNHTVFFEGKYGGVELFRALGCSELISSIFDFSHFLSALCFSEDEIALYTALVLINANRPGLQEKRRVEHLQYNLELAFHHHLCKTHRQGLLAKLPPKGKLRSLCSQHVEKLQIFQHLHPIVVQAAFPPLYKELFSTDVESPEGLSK
- assay.comment: qHTS for inhibitors of ROR gamma transcriptional activity; also: nearly all actives have a fitted effect of over 60% in size
- assay.conditions: Drosophila S2 Gal4-RORgamma UAS-luciferase reporter, 20 h; series mostly up to 53.6 µM
- Source text: NIH Molecular Libraries Probe Production Network [MLPCN] NIH Chemical Genomics Center [NCGC] […] Small molecule inhibitors of ROR gamma activity are detected by a decrease in luciferase reporter activity. […]
In all, about 310,000 compounds went through this assay and about 17,000 (5.5%) were called active. About 11% were inconclusive and are not listed. Calls follow the shape of the dose curve; as a rule, active = well fitted inhibition curve with a large enough effect; inconclusive = small, poorly fitted or top-dose-only effect, or effect the other way; inactive = no such curve, though single readings can be large or run the other way. The sample holds actives, similar compounds and a random draw of the others, so the mix is not that of the screen.
The reply should be one of these categories: Yes for active, No for inactive

Q: Status in this test for COc1ccc(C(=O)NC2CC2)cc1OC1CCN(Cc2ccc(SC)cc2)CC1 ?
Result: No

Q: Status in this test for Oc1ccc(/C=N/Nc2nc(-c3ccccc3F)nc3ccccc23)c(O)c1 ?
Result: Yes

Q: Status in this test for CCOc1ccc(NC(=O)CSc2nncn2C)cc1 ?
Result: No

Q: Status in this test for CC(c1ccccn1)N(C)C(=O)c1ccc2nc(Cc3cccc(Cl)c3)oc2c1 (centres undefined) ?
Result: No

Q: Status in this test for CCC(C)N1CC(=O)N2Cc3[nH]c4ccccc4c3C[C@H]2C1=O (some centres undefined) ?
Result: No

Q: Status in this test for O=C(Nc1ccc(S(=O)(=O)Nc2ncccn2)cc1)C12CC3CC(CC(C3)C1)C2 ?
Result: No

Q: Status in this test for Fc1ccc(/C=N/Nc2nc(-c3cccnc3)nc3ccccc23)cc1 ?
Result: No

Q: Status in this test for COC(=O)c1ccc(NC(=O)CSc2nc(N)c(NC(=O)c3ccc(Br)o3)c(=O)[nH]2)cc1 ?
Result: No

Q: Status in this test for Cc1cc(O)ccc1-c1cnc2ccccc2n1 ?
Result: No

Q: Status in this test for CC1(C)C2CC=C(/C=N/NC(=O)C3CC3)C1C2 (centres undefined) ?
Result: No

Q: Status in this test for CNC(=O)C(=O)N/N=C/c1ccccn1 ?
Result: No

Q: Status in this test for CCCNC(=O)C(=O)Nc1cc2c3c(c1)CCC(=O)N3CCC2 ?
Result: No

Q: Status in this test for Cn1c(CCN2CCCC2)nc2cc(NS(=O)(=O)c3ccccc3)ccc21 ?
Result: No

Q: Status in this test for O=C(Cc1ccccc1)Nc1cccc(NC(=O)c2ccccc2)c1 ?
Result: No

Q: Status in this test for Cc1nc2ccccc2cc1O ?
Result: No

Q: Status in this test for Cc1cccnc1NC(=O)Cn1c(=O)oc2ccccc21 ?
Result: No

Q: Status in this test for O=C(CCNS(=O)(=O)c1cccs1)N1CCN(c2ccc(F)cc2)CC1 ?
Result: No

Q: Status in this test for COc1ccc(CN(C)C(=O)Cc2ccsc2)c(OC)c1OC ?
Result: No

Q: Status in this test for Oc1ccc(/C=N/NC2=NCCCCC2)c(O)c1 ?
Result: Yes

Q: Status in this test for COCC(C)n1c(C)cc(C(=O)COc2ccc(C)nc2[N+](=O)[O-])c1C (centres undefined) ?
Result: Yes

Q: Status in this test for Cc1cccc(C(=O)Nc2ccc(CC(=O)O)cc2)c1 ?
Result: Yes

Q: Status in this test for O=C(O)Cc1ccc(NC(=O)c2cccs2)cc1 ?
Result: No

Q: Status in this test for CC1(C)C2CC=C(/C=N/NC(=O)c3ccc(Cl)cc3)C1C2 (centres undefined) ?
Result: Yes

Q: Status in this test for Cc1cc(C)c(OCC(=O)N(Cc2cccs2)C2CCS(=O)(=O)C2)c(C)c1 (centres undefined) ?
Result: No
